Field pKi: reported value for Carbonic anhydrase 3 (Bos taurus, UniProt Q3SZX4); entries drawn from several documents.
The meaning of pKi here: minus log10 of the concentration in molar units.

Check out these entries, answers already filled in.
compound	pKi
Oc1cccc(O)c1	3.71
CC(C)(O)[C@@H]1CC[C@](C)([C@H]2[C@@H](O)C[C@@]3(C)C4C[C@H](O[C@@H]5OC[C@@H](O)C(O)[C@@H]5O)C5C(C)(C)[C@@H](O[C@@H]6OC[C@@H](O)C(O)[C@@H]6O)CC[C@@]56C[C@@]46CC[C@]23C)O1 (some centres undefined)	5.60

Please look at O=c1c(O)c(-c2ccc(O)cc2O)oc2cc(O)cc(O)c12 and tell me its recorded pKi on Carbonic anhydrase 3 (Bos taurus, UniProt Q3SZX4).
Sequence (Q3SZX4 whole entry): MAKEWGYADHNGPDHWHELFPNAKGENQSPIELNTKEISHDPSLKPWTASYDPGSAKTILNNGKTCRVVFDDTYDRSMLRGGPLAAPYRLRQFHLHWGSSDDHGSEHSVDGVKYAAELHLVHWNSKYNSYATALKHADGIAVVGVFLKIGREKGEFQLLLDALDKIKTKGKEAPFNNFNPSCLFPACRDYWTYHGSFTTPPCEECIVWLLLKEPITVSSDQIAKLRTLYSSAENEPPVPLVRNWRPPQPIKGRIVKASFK
4.67

Retrieve pKi on Carbonic anhydrase 3 (Bos taurus, UniProt Q3SZX4); query Nc1ccc(S(=O)(=O)Nc2ccccn2)cc1
4.03
